These data points were gathered from patent US10815230B2.

Answer each item with its documented remaining activity at 10 µM.
target: CK1d (casein kinase 1 delta) (Homo sapiens); assay: Kinase selectivity, % remaining activity and IC50; type: biochemical; settings: CK1d; 10 μM compound, 10 μM ATP, duplicate; read-out: % of remaining activity (relative to DMSO)
Sequence (P48730 whole entry): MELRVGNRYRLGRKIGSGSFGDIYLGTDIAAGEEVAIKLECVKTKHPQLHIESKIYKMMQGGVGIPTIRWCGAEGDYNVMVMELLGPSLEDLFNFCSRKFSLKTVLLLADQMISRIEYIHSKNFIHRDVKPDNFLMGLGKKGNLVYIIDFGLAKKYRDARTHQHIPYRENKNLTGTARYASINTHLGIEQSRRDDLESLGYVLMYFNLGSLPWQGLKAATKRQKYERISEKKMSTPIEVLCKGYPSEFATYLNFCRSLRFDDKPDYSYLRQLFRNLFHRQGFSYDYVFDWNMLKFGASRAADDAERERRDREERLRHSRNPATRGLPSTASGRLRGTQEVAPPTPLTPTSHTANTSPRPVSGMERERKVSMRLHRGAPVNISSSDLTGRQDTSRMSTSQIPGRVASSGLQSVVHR
Kindly write the number and append the unit.

# count of solved cases: 4
>>> reading("Nc1ncnc2c1c(COc1cccc(Cl)c1)nn2C1CCOCC1")
"8.41%"
>>> reading("NC(=O)c1c(N)c(C(=O)c2ccc(F)cc2)n2ccccc12")
"5.71%"
>>> reading("Nc1ncc(-c2nc3ccccc3o2)c(-c2ccncc2)n1")
"13.3%"
>>> reading("CNc1c(C(N)=O)c2ccccn2c1C(=O)c1ccc(F)cc1")
"1.15%"

Q) Answer with reported remaining activity at 10 µM of COc1ccc(C=C2N=C(c3cccs3)OC2=O)cc1
A) 2.23%
